Hello, the source for this data is patent US8455495B2, in case you need it.

Consider the following compounds and their measured pIC50 readings.
- Experimental system: recombinant human p38α (Homo sapiens, UniProt Q16539)
- Sequence (Q16539 whole entry): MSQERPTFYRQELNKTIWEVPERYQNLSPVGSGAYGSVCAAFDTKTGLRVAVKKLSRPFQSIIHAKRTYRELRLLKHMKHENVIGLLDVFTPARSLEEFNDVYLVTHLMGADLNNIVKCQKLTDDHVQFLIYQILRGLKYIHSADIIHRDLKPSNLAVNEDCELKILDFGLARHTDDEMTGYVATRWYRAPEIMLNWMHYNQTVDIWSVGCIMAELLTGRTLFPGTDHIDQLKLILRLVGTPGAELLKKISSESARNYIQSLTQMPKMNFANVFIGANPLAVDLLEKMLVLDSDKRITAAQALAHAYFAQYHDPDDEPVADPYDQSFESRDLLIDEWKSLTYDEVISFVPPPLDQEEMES
- Protocol text: Purified and activated recombinant human p38α HTRF assay
- Experimental conditions: 1 nM p38α, 50 μM ATP, GST-ATF2 substrate, read-out: p38a IC50
pIC50: −log10 of the molar value.
Value kind: pIC50

[
  {
    "Chemical string": "Cc1ccc(C(=O)Nc2ccnn2C)cc1-c1cc2cnnc(-c3ccc(F)cc3F)c2n(C)c1=O",
    "Experimental system": "recombinant human p38α (Homo sapiens, UniProt Q16539)",
    "Endpoint result": 8.12
  },
  {
    "Chemical string": "Cc1ccc(C(=O)NC2CC2)cc1-c1cc2cnnc(-c3ccc(F)cc3C)c2n(C)c1=O",
    "Experimental system": "recombinant human p38α (Homo sapiens, UniProt Q16539)",
    "Endpoint result": 8.60
  },
  {
    "Chemical string": "Cc1ccc(C(=O)Nc2ccon2)cc1-c1cc2cnnc(-c3ccccc3Cl)c2n(C)c1=O",
    "Experimental system": "recombinant human p38α (Homo sapiens, UniProt Q16539)",
    "Endpoint result": 9.05
  },
  {
    "Chemical string": "Cc1ccc(C(=O)NC2CC2)cc1-c1cc2cnnc(-c3ccc(C(F)(F)F)cc3F)c2n(C)c1=O",
    "Experimental system": "recombinant human p38α (Homo sapiens, UniProt Q16539)",
    "Endpoint result": 8.70
  }
]

----------
- Experimental system: recombinant human p38α (Homo sapiens, UniProt Q16539)
- Protocol text: Purified and activated recombinant human p38α HTRF assay
- Experimental conditions: 1 nM p38α, 50 μM ATP, GST-ATF2 substrate, read-out: p38a IC50
- Description: Purified and Activated Recombinant Human p38α Assay Kinase Reaction Buffer: […] HTRF Detection Buffer: […] Serial Dilution of Compounds: […] […] In the absence of substrate, the background was measured as LO control. […] After 60 minutes incubation at room temperature, the assay plate was read in a Discovery Plate Reader. […] All results were expressed as the mean±the standard error of the mean. […]
Criterion: IC50 strictly less than 2 nM. Met: met. Not met: not met.

[
  {
    "Chemical string": "Cc1ccc(C(=O)NC2CC2)cc1-c1cc2cnnc(-c3ccccc3C(F)(F)F)c2n(C)c1=O",
    "Class label": "not met"
  },
  {
    "Chemical string": "Cc1ccc(C(=O)NC2CC2)cc1-c1cc2cnnc(-c3cc(F)ccc3Cl)c2n(C)c1=O",
    "Class label": "met"
  },
  {
    "Chemical string": "Cc1ccc(C(=O)NC2CC2)cc1-c1cc2cnnc(-c3ccccc3C)c2n(C)c1=O",
    "Class label": "not met"
  },
  {
    "Chemical string": "Cc1c(F)cc(C(=O)NC2CC2)cc1-c1cc2cnnc(-c3ccc(F)cc3Cl)c2n(C)c1=O",
    "Class label": "met"
  },
  {
    "Chemical string": "Cc1ccc(C(=O)Nc2nccs2)cc1-c1cc2cnnc(-c3ccc(F)cc3Cl)c2n(C)c1=O",
    "Class label": "met"
  },
  {
    "Chemical string": "Cn1c(=O)c(-c2cc(C(=O)O)ccc2Cl)cc2cnnc(-c3ccc(F)cc3F)c21",
    "Class label": "not met"
  },
  {
    "Chemical string": "Cc1ccc(C(=O)NC2CC2)cc1-c1cc2cnnc(-c3ccc(S(C)(=O)=O)cc3C)c2n(C)c1=O",
    "Class label": "not met"
  },
  {
    "Chemical string": "Cn1c(=O)c(-c2cc(C(=O)NC3CC3)ccc2Cl)cc2cnnc(-c3ccc(F)cc3F)c21",
    "Class label": "met"
  }
]
